// provenance: PubChem BioAssay AID1224921

# assay.info: inhibitors of Clostridioides difficile proliferation – 4-point retest, confirmation (AID 1224921);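 note: plate controls were DMSO wells for no effect and levofloxacin 16 µg/mL wells for full effect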
# conditions: Clostridioides difficile clinical isolate growth, OD600, 24 h, stronger effect = lower value; at 30 µM unless noted
Out of some 1,400 compounds screened, about 350 (25%) were called active. Not shown: some 2% with an inconclusive outcome. These entries were drawn from the full list. Results with a measured potency or affinity are listed apart.
experimental.readout: max activity

smi=CO[C@H]1CN(C)C(=O)c2ccc(NC(=O)c3nc4ccccc4s3)cc2OC[C@H](C)N(Cc2cccnc2)C[C@H]1C experimental_readout="max activity" result="37.7% (inactive)"
smi=C[C@H](CO)N1C[C@H](C)[C@@H](CN(C)C(=O)NC2CCCCC2)Oc2c(NC(=O)Nc3cccc4ccccc34)cccc2C1=O experimental_readout="max activity" result="61.2% (inactive)"
smi=N#C[C@@H]1[C@@H](c2ccc(/C=C/c3ccccc3)cc2)[C@@H](CO)N1C(=O)C1CC1 experimental_readout="max activity" result="27% (inactive)"
smi=C[C@@H]1CN([C@H](C)CO)C(=O)Cc2cc(NS(C)(=O)=O)ccc2O[C@@H]1CN(C)Cc1ccc(-c2ccccc2)cc1 experimental_readout="max activity" result="52.1% (inactive)"
smi=COCC(=O)N1C[C@@H](C)[C@@H](OC)CN(C)C(=O)c2ccc(NC(=O)NC(C)C)cc2OC[C@@H]1C experimental_readout="max activity" result="17.9% (inactive)"
smi=CC(C)Cc1ccc(CN2CC[C@@H](NC(=O)c3ccccc3)C2)cc1 experimental_readout="max activity" result="20.1% [at 8 µM] (inactive)"

* * *

# assay.info: inhibitors of Clostridioides difficile proliferation – 4-point retest, confirmation (AID 1224921);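 note: plate controls were DMSO wells for no effect and levofloxacin 16 µg/mL wells for full effect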
# conditions: Clostridioides difficile clinical isolate growth, OD600, 24 h, stronger effect = lower value; at 30 µM unless noted
Screen size: about 1,400 compounds; about 350 (25%) were called active. Roughly 2% stayed inconclusive and do not appear here. These entries were drawn from the full list. Results with a measured potency or affinity are listed apart.
experimental.readout: max activity

smi=COc1ccccc1C#Cc1ccc2c(c1)O[C@@H](CN(C)Cc1cccnc1)[C@H](C)CN([C@@H](C)CO)S2(=O)=O experimental_readout="max activity" result="26.4% (inactive)"
smi=Cc1ccc(S(=O)(=O)Nc2ccc3c(c2)C(=O)N([C@@H](C)CO)C[C@@H](C)[C@H](CN(C)C)OCCCC[C@H](C)O3)cc1 experimental_readout="max activity" result="-4% [at 8 µM] (inactive)"
smi=C[C@@H]1CCCCO[C@H](CN(C)Cc2ccc(C(F)(F)F)cc2)[C@@H](C)CN([C@@H](C)CO)C(=O)c2cc(NS(=O)(=O)c3ccc(Cl)cc3)ccc2O1 experimental_readout="max activity" result="24% [at 8 µM] (inactive)"
smi=CC(=O)N(C)C[C@H]1Oc2cc(C#CC3CCCCC3)ccc2S(=O)(=O)N([C@H](C)CO)C[C@H]1C experimental_readout="max activity" result="12.6% [at 8 µM] (inactive)"
smi=O=C(N[C@@H]1C=C[C@H](CC(=O)N2CCOCC2)O[C@@H]1CO)c1cccc(F)c1 experimental_readout="max activity" result="9.1% [at 8 µM] (inactive)"
smi=CCCNC(=O)N(C)C[C@@H]1Oc2cc(C#Cc3ccccn3)ccc2S(=O)(=O)N([C@@H](C)CO)C[C@H]1C experimental_readout="max activity" result="9.97% (inactive)"
smi=CO[C@H]1CN(C)C(=O)c2ccc(NC(=O)C3CCCCC3)cc2OC[C@H](C)N(Cc2nccs2)C[C@H]1C experimental_readout="max activity" result="21.8% [at 8 µM] (inactive)"
smi=C[C@@H]1CN([C@@H](C)CO)S(=O)(=O)c2ccc(C#CCC3CCCC3)cc2O[C@H]1CN(C)C(=O)c1ccccn1 experimental_readout="max activity" result="25.9% (inactive)"
smi=O=C(Nc1ccc2c(c1)OCO2)N[C@@H]1C=C[C@H](CC(=O)N2CCN(c3ccccc3)CC2)O[C@H]1CO experimental_readout="max activity" result="18.2% (inactive)"
smi=COc1ccc(S(=O)(=O)Nc2ccc3c(c2)CC(=O)N([C@@H](C)CO)C[C@H](C)[C@@H](CN(C)CC2CCCCC2)O3)cc1 experimental_readout="max activity" result="52.7% (inactive)"
smi=COc1ccccc1CNC(=O)C[C@H]1C[C@H]2c3cc(NC(=O)Nc4ccc(C(F)(F)F)cc4)ccc3O[C@H]2[C@@H](CO)O1 experimental_readout="max activity" result="26.5% (inactive)"
smi=C[C@@H]1CN([C@@H](C)CO)C(=O)c2cc(NS(=O)(=O)c3ccc(Cl)cc3)ccc2O[C@@H]1CN(C)Cc1ccccc1 experimental_readout="max activity" result="18.9% (inactive)"
smi=Cc1ccc(S(=O)(=O)Nc2ccc3c(c2)C(=O)N([C@@H](C)CO)C[C@H](C)[C@@H](CN(C)Cc2ccc(C(F)(F)F)cc2)OCCCC[C@@H](C)O3)cc1 experimental_readout="max activity" result="32.7% [at 8 µM] (inactive)"
smi=C[C@@H]1CN([C@@H](C)CO)C(=O)Cc2cc(NS(C)(=O)=O)ccc2O[C@H]1CN(C)CC1CCCCC1 experimental_readout="max activity" result="14.3% (inactive)"
smi=C[C@@H]1CN([C@H](C)CO)S(=O)(=O)c2ccc(/C=C/c3ccccc3)cc2O[C@@H]1CN(C)C(=O)Nc1cc(F)ccc1F experimental_readout="max activity" result="35.6% (inactive)"
smi=C[C@@H]1CN([C@H](C)CO)C(=O)c2ccccc2-c2ccccc2CO[C@@H]1CN(C)C(=O)CCN(C)C experimental_readout="max activity" result="-7.59% [at 2.1 µM] (inactive)"
smi=COc1ccccc1C#Cc1ccc2c(c1)O[C@@H](CN(C)Cc1ccncc1)[C@H](C)CN([C@H](C)CO)S2(=O)=O experimental_readout="max activity" result="34.5% (inactive)"
smi=Cc1ccc(-c2ccc3c(c2)O[C@@H](CN(C)Cc2cccnc2)[C@H](C)CN([C@H](C)CO)S3(=O)=O)cc1 experimental_readout="max activity" result="16.8% (inactive)"
smi=C[C@H]1CN([C@@H](C)CO)S(=O)(=O)c2ccc(/C=C/c3ccccc3)cc2O[C@H]1CN(C)C(=O)NC1CCCCC1 experimental_readout="max activity" result="52.4% (inactive)"
smi=NC(=O)[C@H]1[C@@H]2C(=O)O[C@@H](c3ccccc3)[C@@H](c3ccccc3)N2[C@@H](c2ccc(O)cc2)[C@]12C(=O)Nc1ccc(C#CC3(O)CCCCCC3)cc12 experimental_readout="max activity" result="32.1% (inactive)"
